Where do these numbers come from? They come from paper PMC12392461.

Test system: ERα-UAS-bla GripTite cells
test.settings: Table S11; TKcytotoxicity-Ratio
quantity: TKcytotoxicity

compound: CC(C)(c1cc(Cl)c(O)c(Cl)c1)c1cc(Cl)c(O)c(Cl)c1 [TCBPA, 2,2',6,6'-Tetrachlorobisphenol A]
experimental.value: 0.40
--
compound: Cc1ccc(S(=O)(=O)NC(=O)Nc2ccc(Cc3ccc(NC(=O)NS(=O)(=O)c4ccc(C)cc4)cc3)cc2)cc1 [BTUM]
experimental.value: 2.25
--
compound: Oc1ccc(Sc2ccc(O)cc2)cc1 [BPT, 4,4'-Thiodiphenol]
experimental.value: 1.00
--
compound: Oc1ccc(Cc2ccc(O)cc2)cc1 [BPF, Bis(4-hydroxyphenyl)methane]
experimental.value: 0.44

###

Test system: Mitochondrial Membrane Potential
assay.notes: cells
test.settings: specificity ratio

compound: O=S(=O)(c1ccc(O)cc1)c1ccc(OCc2ccccc2)cc1 [BPS-MPE, 4-[4-(benzyloxy)benzenesulfonyl]phenol]
target.entity: Mitochondrial Membrane Potential
result.comparator: =
SR (MMP inhibition): 22

compound: CC(C)Oc1ccc(S(=O)(=O)c2ccc(O)cc2)cc1
target.entity: Mitochondrial Membrane Potential
result.comparator: =
SR (MMP inhibition): 41

compound: CC(C)(c1ccc(O)cc1)c1ccc(O)cc1 [BPA, 4,4'-(Propane-2,2-diyl)diphenol, reference compound]
target.entity: Mitochondrial Membrane Potential
result.comparator: =
SR (MMP inhibition): 3

compound: O=C(OCc1ccccc1)c1ccc(O)cc1 [BzPB, Benzyl 4-hydroxybenzoate]
target.entity: Mitochondrial Membrane Potential
result.comparator: >
SR (MMP inhibition): 10

compound: Oc1ccc(Sc2ccc(O)cc2)cc1
target.entity: Mitochondrial Membrane Potential
result.comparator: >
SR (MMP inhibition): 10

###

Test system: SH-SY5Y cells
test.settings: NOI bioassay cytotoxicity; dosing range all; log-logistic model
Label scheme for logIC10: lower than -4 is false (0), -4 and above is true (1).

compound: O=S(=O)(c1ccc(O)cc1)c1ccc(O)cc1
target.entity: SH-SY5Y cells
assigned.class: true (1)
//
compound: O=C(OCc1ccccc1)c1ccc(O)cc1 [BzPB, Benzyl 4-hydroxybenzoate]
target.entity: SH-SY5Y cells
assigned.class: true (1)
//
compound: CC(c1ccc(O)cc1)c1ccc(O)cc1
target.entity: SH-SY5Y cells
assigned.class: true (1)
//
compound: Cc1cc(Cc2cc(C)c(O)c(C)c2)cc(C)c1O [TMBPF, Bis(3,5-dimethyl-4-hydroxyphenyl)methane]
target.entity: SH-SY5Y cells
assigned.class: false (0)
//
compound: COC(=O)C(c1ccc(O)cc1)c1ccc(O)cc1 [Bz, Methyl bis(4-hydroxyphenyl)acetate]
target.entity: SH-SY5Y cells
assigned.class: true (1)

###

target.entity: Estrogen Receptor ERα (Homo sapiens, UniProt P03372)
Sequence (P03372 311-547 limits assumed): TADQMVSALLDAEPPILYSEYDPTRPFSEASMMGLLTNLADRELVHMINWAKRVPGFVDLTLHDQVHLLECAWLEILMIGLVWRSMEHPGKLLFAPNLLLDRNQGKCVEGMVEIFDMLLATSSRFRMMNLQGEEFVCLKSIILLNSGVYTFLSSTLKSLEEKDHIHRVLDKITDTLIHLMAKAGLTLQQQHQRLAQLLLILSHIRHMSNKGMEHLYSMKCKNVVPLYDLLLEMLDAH
assay.notes: cell-based
test.settings: input of the ToxPi score, values up to 1.00

molecule: C=CCOc1ccc(S(=O)(=O)c2ccc(O)cc2)cc1 [BPS-MAE, 4-[[4-(Allyloxy)phenyl]sulfonyl]phenol]
log(1/EC10) ERα: 0.62
--
molecule: CC1(C)C(O)C(C)(C)C1O (racemic)
log(1/EC10) ERα: 0.24
--
molecule: Oc1ccc(Sc2ccc(O)cc2)cc1
log(1/EC10) ERα: 0.78
--
molecule: O=C(OCc1ccccc1)c1ccc(O)cc1 [BzPB, Benzyl 4-hydroxybenzoate]
log(1/EC10) ERα: 0.70
--
molecule: COC(=O)C(c1ccc(O)cc1)c1ccc(O)cc1 [Bz, Methyl bis(4-hydroxyphenyl)acetate]
log(1/EC10) ERα: 0.76
--
molecule: CC(C)Oc1ccc(S(=O)(=O)c2ccc(O)cc2)cc1
log(1/EC10) ERα: 0.63
--
molecule: O=S(=O)(c1ccc(O)cc1)c1ccc(O)cc1
log(1/EC10) ERα: 0.75
--
molecule: O=S(=O)(c1ccc(O)cc1)c1ccccc1O [2,4-BPS, 2,4'-Dihydroxydiphenyl sulfone]
log(1/EC10) ERα: 0.60

###

This listing pairs molecules with measured logIC10.
System: MCF7 (ARE/MMP)
test.settings: Bioassay ARE; cytotoxicity; dosing range all; log-logistic model fit

molecule: Oc1ccc(C2(c3ccc(O)cc3)CCCCC2)cc1 [BPZ, 1,1'-Bis(4-hydroxyphenyl)cyclohexane]
logIC10: -4.14
--
molecule: Oc1ccc(Cc2ccc(O)cc2)cc1 [BPF, Bis(4-hydroxyphenyl)methane]
logIC10: -3.18
--
molecule: CC(c1ccccc1)(c1ccc(O)cc1)c1ccc(O)cc1
logIC10: -4.50

###

This listing pairs compounds with measured EC10.
System: Mitochondrial Membrane Potential
assay.notes: cells
test.settings: Arec32, read-out: EC10, MMP (M)
quantity: EC10 (M)

compound: CC(C)CC(C)(c1ccc(O)cc1)c1ccc(O)cc1 [BP-MIBK, 4,4'-(1,3-Dimethylbutylidene)diphenol]
target.entity: Mitochondrial Membrane Potential
experimental.value: 1.14e-05
--
compound: O=C(OCc1ccccc1)c1ccc(O)cc1 [BzPB, Benzyl 4-hydroxybenzoate]
target.entity: Mitochondrial Membrane Potential
experimental.value: 2.44e-05
--
compound: CC(C)(c1cc(Br)c(O)c(Br)c1)c1cc(Br)c(O)c(Br)c1 [TBBPA, 3,3',5,5'-Tetrabromobisphenol A]
target.entity: Mitochondrial Membrane Potential
experimental.value: 2.83e-05
--
compound: O=S(=O)(c1ccc(O)cc1)c1ccc(O)cc1 [BPS, 4,4'-Sulfonyldiphenol]
target.entity: Mitochondrial Membrane Potential
experimental.value: 0.000117

###

This listing pairs compounds with measured SR-ScoreERα.
target.entity: Estrogen Receptor ERα (Homo sapiens)
assay.notes: cell-based
test.settings: SR-Score, sigma k=1, x=5
quantity: SR-ScoreERα

compound: O=C(OCc1ccccc1)c1ccc(O)cc1 [BzPB, Benzyl 4-hydroxybenzoate]
target.entity: Estrogen Receptor ERα (Homo sapiens)
experimental.value: 1.00
//
compound: Oc1ccc(Sc2ccc(O)cc2)cc1 [BPT, 4,4'-Thiodiphenol]
target.entity: Estrogen Receptor ERα (Homo sapiens)
experimental.value: 1.00
//
compound: CC(C)Oc1ccc(S(=O)(=O)c2ccc(O)cc2)cc1 [D8, 4-((4-Isopropoxyphenyl)sulfonyl)phenol]
target.entity: Estrogen Receptor ERα (Homo sapiens)
experimental.value: 1.00
//
compound: CC(C)(c1ccc(O)cc1)c1ccc(O)cc1 [BPA, 4,4'-(Propane-2,2-diyl)diphenol, reference compound]
target.entity: Estrogen Receptor ERα (Homo sapiens)
experimental.value: 1.00
//
compound: CC1(C)C(O)C(C)(C)C1O (racemic) [r-TMCD]
target.entity: Estrogen Receptor ERα (Homo sapiens)
experimental.value: 0.00722
//
compound: CC(C)c1cc(C(C)(C)c2ccc(O)c(C(C)C)c2)ccc1O [BPG]
target.entity: Estrogen Receptor ERα (Homo sapiens)
experimental.value: 0.94
//
compound: CCC(C)(c1ccc(O)cc1)c1ccc(O)cc1 [BPB, 4,4'-(Butane-2,2-diyl)diphenol]
target.entity: Estrogen Receptor ERα (Homo sapiens)
experimental.value: 1.00

###

This listing pairs molecules with measured Cparent-Ratio Rep.2 %.
assay.notes: Abiotic CYP (aCYP) oxidation, remaining parent compound (Cparent-Ratio)
test.settings: Table S9, replicate 2

molecule: CC(C)(c1ccc(O)cc1)c1ccc(O)cc1 [BPA, 4,4'-(Propane-2,2-diyl)diphenol, reference compound]
result.unit: %
Cparent-Ratio Rep.2 %: 84.76
//
molecule: Cc1ccc(S(=O)(=O)NC(=O)Nc2cccc(OS(=O)(=O)c3ccc(C)cc3)c2)cc1
result.unit: %
Cparent-Ratio Rep.2 %: 45.82
//
molecule: Cc1cc(Cc2cc(C)c(O)c(C)c2)cc(C)c1O [TMBPF, Bis(3,5-dimethyl-4-hydroxyphenyl)methane]
result.unit: %
Cparent-Ratio Rep.2 %: 79.26
//
molecule: CC1(C)[C@H](O)C(C)(C)[C@H]1O
result.unit: %
Cparent-Ratio Rep.2 %: 108.56
//
molecule: CC(C)Oc1ccc(S(=O)(=O)c2ccc(O)cc2)cc1
result.unit: %
Cparent-Ratio Rep.2 %: 110.37
//
molecule: O=C(OCc1ccccc1)c1ccc(O)cc1 [BzPB, Benzyl 4-hydroxybenzoate]
result.unit: %
Cparent-Ratio Rep.2 %: 128.10
//
molecule: CC1(C)C(O)C(C)(C)C1O (racemic)
result.unit: %
Cparent-Ratio Rep.2 %: 101.99
//
molecule: O=S(=O)(c1ccc(O)cc1)c1ccc(OCc2ccccc2)cc1 [BPS-MPE, 4-[4-(benzyloxy)benzenesulfonyl]phenol]
result.unit: %
Cparent-Ratio Rep.2 %: 80.90

###

target.entity: Peroxisome proliferator-activated receptor γ (Homo sapiens, UniProt P37231)
Sequence (P37231 238-505 limits assumed): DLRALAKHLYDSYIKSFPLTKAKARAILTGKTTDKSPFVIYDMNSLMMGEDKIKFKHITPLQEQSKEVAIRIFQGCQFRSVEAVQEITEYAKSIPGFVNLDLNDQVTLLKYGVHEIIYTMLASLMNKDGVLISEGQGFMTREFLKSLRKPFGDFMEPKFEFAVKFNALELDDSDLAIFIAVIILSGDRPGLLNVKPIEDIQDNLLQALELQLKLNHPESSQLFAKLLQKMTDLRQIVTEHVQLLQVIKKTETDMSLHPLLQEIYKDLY
assay.notes: cell-based
test.settings: PPARγ bioassay; dosing range all

compound: C=CCOc1ccc(S(=O)(=O)c2ccc(O)cc2)cc1 [BPS-MAE, 4-[[4-(Allyloxy)phenyl]sulfonyl]phenol]
target.entity: Peroxisome proliferator-activated receptor γ (Homo sapiens, UniProt P37231)
EC10, linear transformed: 5.57E-07
//
compound: Oc1ccc(Sc2ccc(O)cc2)cc1
target.entity: Peroxisome proliferator-activated receptor γ (Homo sapiens, UniProt P37231)
EC10, linear transformed: 9.61E-07
//
compound: Cc1ccc(S(=O)(=O)NC(=O)Nc2cccc(OS(=O)(=O)c3ccc(C)cc3)c2)cc1
target.entity: Peroxisome proliferator-activated receptor γ (Homo sapiens, UniProt P37231)
EC10, linear transformed: 6.71E-07
//
compound: O=C(OCc1ccccc1)c1ccc(O)cc1 [BzPB, Benzyl 4-hydroxybenzoate]
target.entity: Peroxisome proliferator-activated receptor γ (Homo sapiens, UniProt P37231)
EC10, linear transformed: 2.04E-06
//
compound: CC(C)c1cc(C(C)(C)c2ccc(O)c(C(C)C)c2)ccc1O
target.entity: Peroxisome proliferator-activated receptor γ (Homo sapiens, UniProt P37231)
EC10, linear transformed: 1.17E-07
//
compound: CC(C)(c1ccc(O)c(-c2ccccc2)c1)c1ccc(O)c(-c2ccccc2)c1 [BPPH, 2,2-Bis(2-hydroxy-5-biphenylyl)propane]
target.entity: Peroxisome proliferator-activated receptor γ (Homo sapiens, UniProt P37231)
EC10, linear transformed: 5.55E-07
//
compound: Cc1cc(Cc2cc(C)c(O)c(C)c2)cc(C)c1O [TMBPF, Bis(3,5-dimethyl-4-hydroxyphenyl)methane]
target.entity: Peroxisome proliferator-activated receptor γ (Homo sapiens, UniProt P37231)
EC10, linear transformed: 3.29E-07
